test.readout: melting point

Before answering, review these 2 worked examples.
INSERT INTO measurements (molecule, test_readout, experimental_result) VALUES
  ('CN(c1cccc2cc(C3=NCC(CN4CC[S+]([O-])CC4)S3)[nH]c12)S(=O)(=O)c1nccn1C (stereo not drawn) [Example 320]', 'melting point', '161 to 162 °C'),
  ('CN(c1cc(OCCCS(C)(=O)=O)cc2cc(C3=NCC(CN4CCOCC4)S3)[nH]c12)S(=O)(=O)c1ccccn1 (stereo not drawn) [Example 321]', 'melting point', '168 to 169 °C');

Respond only with melting point recorded for CN(C)C(=O)CC1CN=C(c2cc3cccc(N(C)S(=O)(=O)c4cccs4)c3[nH]2)S1 (stereo not drawn) [Example 294]
153 to 154 °C

Let me know recorded melting point for CN(c1cccc2cc(C3=NCC(CC(N)=O)S3)[nH]c12)S(=O)(=O)c1cccs1 (stereo not drawn) [Example 287] , thanks.
193 to 194 °C

Determine its reported melting point: Cc1ccc(N(C)S(=O)(=O)c2cccs2)c2[nH]c(C3=NCC(CCO)S3)cc12 (stereo not drawn) [Example 291]
168 to 169 °C

Tell me melting point reported for CN1CCN(C(=O)CC2CN=C(c3cc4cccc(N(C)S(=O)(=O)c5cccs5)c4[nH]3)S2)CC1 (stereo not drawn) [Example 286]
151 to 153 °C

Indicate the recorded melting point value for this molecule: O=C(O)CC1CN=C(c2cc3cccc(NS(=O)(=O)c4cccs4)c3[nH]2)S1 (stereo not drawn) [Example 296]
> 240 °C (dec.)
